src = paper PMC6009876

# Test Target: UniProtKB P48736
# Sequence (P48736 whole entry, species assumed, canonical isoform): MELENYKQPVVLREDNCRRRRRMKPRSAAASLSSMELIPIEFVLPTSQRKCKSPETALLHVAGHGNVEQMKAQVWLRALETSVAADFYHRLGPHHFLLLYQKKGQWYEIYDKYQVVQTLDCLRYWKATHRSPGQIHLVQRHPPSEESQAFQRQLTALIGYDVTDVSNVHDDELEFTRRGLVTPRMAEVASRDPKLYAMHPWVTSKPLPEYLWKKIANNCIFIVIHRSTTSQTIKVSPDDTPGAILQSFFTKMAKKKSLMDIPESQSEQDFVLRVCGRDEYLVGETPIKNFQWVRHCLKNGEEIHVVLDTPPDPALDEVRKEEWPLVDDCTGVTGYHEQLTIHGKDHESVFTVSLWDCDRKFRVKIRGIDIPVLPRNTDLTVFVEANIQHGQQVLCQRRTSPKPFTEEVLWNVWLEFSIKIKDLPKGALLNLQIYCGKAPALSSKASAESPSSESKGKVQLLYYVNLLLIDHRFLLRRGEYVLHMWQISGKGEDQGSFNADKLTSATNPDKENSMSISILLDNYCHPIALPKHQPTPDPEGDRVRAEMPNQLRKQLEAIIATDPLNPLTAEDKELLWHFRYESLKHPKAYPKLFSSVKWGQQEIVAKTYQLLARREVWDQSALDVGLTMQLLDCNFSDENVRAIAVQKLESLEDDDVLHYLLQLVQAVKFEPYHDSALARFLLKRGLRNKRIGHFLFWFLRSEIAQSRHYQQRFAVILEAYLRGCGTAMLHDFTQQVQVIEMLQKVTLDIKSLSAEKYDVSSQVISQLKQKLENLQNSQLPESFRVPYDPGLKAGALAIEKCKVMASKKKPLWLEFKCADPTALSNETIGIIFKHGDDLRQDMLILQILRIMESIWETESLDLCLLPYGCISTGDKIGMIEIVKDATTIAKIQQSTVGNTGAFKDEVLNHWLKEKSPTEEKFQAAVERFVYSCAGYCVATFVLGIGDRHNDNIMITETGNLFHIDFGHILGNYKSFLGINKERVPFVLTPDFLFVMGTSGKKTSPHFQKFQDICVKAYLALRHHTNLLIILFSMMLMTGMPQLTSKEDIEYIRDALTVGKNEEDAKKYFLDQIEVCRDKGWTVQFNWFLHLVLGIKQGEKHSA
# Assay Details: PI3K isoform selectivity, p110γ
# Experimental Parameters: mean of at least two experiments
Recorded measurements of pIC50, one per entry
Recall that pIC50 is obtained by taking minus log10 of the concentration measured in molar.

Known pIC50 results, listed for orientation:
COc1ccc(-c2ccc3ncnc(O[C@H]4CCN(C(=O)C5CCOCC5)C4)c3c2)cn1 [Compound 12d]    6.33
COc1ccc(-c2ccc3ncnc(N[C@H]4CCCN(C(=O)C5CC5)C4)c3c2)cn1 [Compound 14b]    6.98

Now look at this one.
Provide only the value of recorded pIC50 for COc1ccc(-c2ccc3ncnc(N[C@H]4CCCN(C(=O)C5CCC5)C4)c3c2)cn1 [Compound 14c]
6.92
